- Tested on: TK-10
- method: GI50 of drug in presence of dasatinib; higher = less potent
- conditions: treatment: drug + dasatinib (fixed dose, not stated); 5 days
Below is a list of entries, each paired with its recorded GI50 of drug value.
Unit µM implied. Number only.

Looking for the measured GI50 of drug of Nc1nc(N)c2nc(-c3cccc(O)c3)cnc2n1 + Cc1nc(Nc2ncc(C(=O)Nc3c(C)cccc3Cl)s2)cc(N2CCN(CCO)CC2)n1 , can you help? 3

Same read-out for CCCS(=O)(=O)Nc1ccc(F)c(C(=O)c2c[nH]c3ncc(Cl)cc23)c1F [PLX-4720] + Cc1nc(Nc2ncc(C(=O)Nc3c(C)cccc3Cl)s2)cc(N2CCN(CCO)CC2)n1 ? 5.47

---

Below is a list of entries, each paired with its recorded AUC of dose-response viability curve value.
- Test system: TK-10
- method: AUC of dose-response viability curve, drug alone (arbitrary (AUC of normalised viability)); higher = less growth inhibition
- conditions: treatment: drug alone; 5 days
Reply with just the number.

COc1cc(Nc2ncc3c(n2)-c2ccc(Cl)cc2C(c2c(F)cccc2OC)=NC3)ccc1C(=O)O [MLN8237 (Alisertib)]
2.78
CC[C@H](CO)Nc1nc(NCc2ccccc2)c2ncn(C(C)C)c2n1 [Roscovitine (Seliciclib, CYC202)]
3.17
COc1cc2ncnc(Nc3ccc(O)c(Br)c3)c2cc1OC [WHI-P154]
2.33

In the following, a different molecule is considered.
Looking for the measured AUC of dose-response viability curve of Oc1cc(O)cc(/C=C/c2ccc(O)c(O)c2)c1 [Piceatannol] , can you help? 3.2

---

- Tested on: A498
- method: minimum viability across doses, drug alone, relative to DMSO (fraction); higher = less growth inhibition
- conditions: treatment: drug alone; 5 days
Below is a list of entries, each paired with its recorded minimum viability across doses value.
Reply with just the number.

Solved cases below.
CNC(=O)c1cccc(-c2ccc3c(N4CCOC[C@@H]4C)nc(N4CCOC[C@@H]4C)nc3n2)c1 [AZD2014]
0.229
FC(F)(F)c1ccc(/C=C/c2nc(COc3ccc(CCCCn4ccnn4)cc3)co2)cc1 [Mubritinib (TAK 165)]
0.151
CN(c1ncccc1CNc1nc(Nc2ccc3c(c2)CC(=O)N3)ncc1C(F)(F)F)S(C)(=O)=O.O=S(=O)(O)c1ccccc1
0.018

Enter reported minimum viability across doses observed with A498 for O=C1NCCc2[nH]c(-c3ccncc3)cc21 0.0125

Same read-out for Cc1ccc(NC(=O)c2cccc(C(C)(C)C#N)c2)cc1Nc1ccc2ncn(C)c(=O)c2c1 [AZ628] ? 0.928

Same read-out for Cc1cc(Nc2cc(CN3CCOCC3)c3nc(C)c(Cc4ccc(Cl)cc4F)n3n2)[nH]n1 ? 0.338

Same read-out for COc1cc2c(Nc3ccc(Br)cc3F)ncnc2cc1OCC1CCN(C)CC1 [Vandetanib (Zactima)] ? 0.68

Same read-out for COc1cc2nccc(Oc3ccc(NC(=O)Nc4ccc(F)cc4F)c(F)c3)c2cc1OC [Ki8751] ? 1

Same read-out for C[C@@H]1CN(CC(=O)Nc2ccc3c(c2)Cc2cccc(-c4cc(=O)cc(N5CCOCC5)o4)c2S3)C[C@H](C)O1 ? 0.893

---

- Test system: 769-P
- method: minimum viability across doses, drug + dasatinib, relative to DMSO (fraction); higher = less growth inhibition
- conditions: treatment: drug + dasatinib (fixed dose, not stated); 5 days
Below is a list of entries, each paired with its recorded minimum viability across doses value.
Reply with just the number.

Solved cases below.
Cn1cc(C2=C(c3cn(C4CCN(Cc5ccccn5)CC4)c4ccccc34)C(=O)NC2=O)c2ccccc21 + Cc1nc(Nc2ncc(C(=O)Nc3c(C)cccc3Cl)s2)cc(N2CCN(CCO)CC2)n1
0.571
S=C(NCc1ccc2c(c1)OCO2)N1CCN(c2ncnc3c2oc2ccccc23)CC1 [Amuvatinib (MP-470)] + Cc1nc(Nc2ncc(C(=O)Nc3c(C)cccc3Cl)s2)cc(N2CCN(CCO)CC2)n1
0.282
CCC(=O)N1CCN(c2ccc(-n3c(=O)ccc4cnc5ccc(-c6cnc7ccccc7c6)cc5c43)cc2C(F)(F)F)CC1 [Torin 1] + Cc1nc(Nc2ncc(C(=O)Nc3c(C)cccc3Cl)s2)cc(N2CCN(CCO)CC2)n1
0.0737
COc1cc2ncnc(Nc3ccc(F)c(Cl)c3)c2cc1NC(=O)/C=C/CN1CCCCC1 + Cc1nc(Nc2ncc(C(=O)Nc3c(C)cccc3Cl)s2)cc(N2CCN(CCO)CC2)n1
0.00783
CN1CCN(c2cccc(Nc3nc4c(-c5ccc(S(C)(=O)=O)cc5)cccn4n3)c2)CC1 + Cc1nc(Nc2ncc(C(=O)Nc3c(C)cccc3Cl)s2)cc(N2CCN(CCO)CC2)n1
0.293
Cc1cc(Nc2cc(N3CCN(C)CC3)nc(Sc3ccc(NC(=O)C4CC4)cc3)n2)n[nH]1 [VX-680 (MK-0457, Tozasertib)] + Cc1nc(Nc2ncc(C(=O)Nc3c(C)cccc3Cl)s2)cc(N2CCN(CCO)CC2)n1
0.269
CNC(=O)c1ccc(C)c(-n2c(C)cc(OCc3ccc(F)cc3F)c(Br)c2=O)c1 + Cc1nc(Nc2ncc(C(=O)Nc3c(C)cccc3Cl)s2)cc(N2CCN(CCO)CC2)n1
0.558
Nc1cccc2c1C(=O)N(C1CCC(=O)NC1=O)C2=O (centres undefined) [Pomalidomide] + Cc1nc(Nc2ncc(C(=O)Nc3c(C)cccc3Cl)s2)cc(N2CCN(CCO)CC2)n1
0.65

In the following, a different compound is considered.
Looking for the measured minimum viability across doses of CCCS(=O)(=O)Nc1ccc(F)c(C(=O)c2c[nH]c3ncc(Cl)cc23)c1F [PLX-4720] + Cc1nc(Nc2ncc(C(=O)Nc3c(C)cccc3Cl)s2)cc(N2CCN(CCO)CC2)n1 , can you help? 0.641
